Test system: Calpain activity in SH-SY5Y cells
Test: SH-SY5Y + AMC fluorescence assay (Suc-LLVY-AMC substrate)
Assay type: cell-based
Settings: read-out: SH-SY5Y + AMC IC50
pIC50: −log10 of the molar value.
Quick reference: pIC50 of the listed items.

molecule="Cc1cc(C(=O)NC(Cc2ccccc2)C(=O)C(N)=O)c(-n2ccc(-c3ccccc3)n2)s1 (centres unmarked)" test_result="< 4.60"
molecule="NC(=O)C(=O)C(Cc1ccccc1)NC(=O)c1cn(C(F)F)nc1-c1cccc2ncccc12 (centres unmarked)" test_result="> 5.00"
molecule="NC(=O)C(=O)C(Cc1ccccc1)NC(=O)c1oc(C2CC2)nc1-c1ccccc1 (centres unmarked)" test_result="> 5.00"

## Input Report pIC50 for CCn1cc(C(=O)NC(Cc2ccccc2)C(=O)C(N)=O)c(-c2ccccc2F)n1 (centres unmarked)
## Output > 5.00

## Input For O=C(NC1CC1)C(=O)C(Cc1ccccc1)NC(=O)c1cnoc1-c1ccccc1 (centres unmarked) , write its pIC50.
## Output < 4.60
